Quick reference for fractional inhibitory concentration index (FICI) among some molecules
- System: Pseudomonas aeruginosa
- Method notes: Synergistic antibacterial activity against Pseudomonas aeruginosa MTCC 2453 assessed as fractional inhibitory concentration index incubated overnight in presence of ciprofloxacin by microdilution checkerboard assay
- Assay type: functional
Test readout: fractional inhibitory concentration index (FICI)

Smiles input	Measured value
Fc1ccc(/C=N/CCNc2ccnc3cc(Cl)ccc23)cc1	1.5
O=C1Nc2ccc(Cl)cc2/C1=N/CCNc1ccnc2cc(Cl)ccc12	1.062
O=C1Nc2cc(Cl)ccc2/C1=N/CCNc1ccnc2cc(Cl)ccc12	1.25
O=[N+]([O-])c1ccccc1/C=N/CCNc1ccnc2cc(Cl)ccc12	1.5
Clc1ccc2c(NCC/N=C/c3ccc4ccccc4n3)ccnc2c1	1.25
